Numbers sourced from PubChem BioAssay.

# protocolText: PSAC antagonists in infected red cells, primary screen, cell-based, P. falciparum Indochina, OD700, 1 h (AID 1154)
# assayContext: P. falciparum Indochina infected RBC osmotic lysis, called active from +8 up or from −8 down
Activity calls are given as the source filed them.
Outcome codes: active, inactive

INSERT INTO results (compound, assignedclass) VALUES
  ('CC(C)C(CO)N1C(=O)[C@@H]2C3C(=O)OCCC/C=C\[C@H]3OC23C=CCN(C(C)(C)C)C(=O)[C@@H]13 (some centres not stated)', 'inactive'),
  ('CC(C)[Si](C#C[Si](C(C)C)(C(C)C)C(C)C)(O[C@H](C)c1cn([C@H](CO)Cc2ccccc2)nn1)C(C)C', 'inactive'),
  ('CCCC[C@@H](O)C1=C(COc2ccccc2)C[C@H]2C(=O)N(C)C(=O)[C@H]2[C@H]1CO', 'inactive'),
  ('COC(=O)[C@@]1(Cc2ccc(F)cc2)[C@H]2c3cc(C(=O)N4CCCC4)n(CCN4CNCC4=O)c3C[C@H]2CN1C(=O)c1ccccc1', 'inactive'),
  ('O=C(NCCCCCNC(=O)/C(Cc1ccccc1)=N/O)OCc1ccccc1', 'active'),
  ('COC(=O)[C@@]1(Cc2ccc(OC)cc2)[C@H]2c3cc(C(=O)N4CCCC4)n(Cc4cccc5ccccc45)c3C[C@H]2CN1C(=O)c1ccccc1', 'inactive'),
  ('COC(=O)[C@@]1(Cc2ccc(OC)cc2)[C@H]2c3cc(C(=O)N4CCCC4)n(Cc4c(-c5ccccc5)noc4C)c3C[C@H]2CN1C(=O)c1ccccc1', 'inactive');

====

# System: Plasmodium falciparum Sir2 (PF13_0152, Sir2A)
# protocolText: pfSir2 binders on small-molecule microarrays, primary screen, biochemical, small-molecule microarray, 635 nm fluorescence (AID 1098);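 note: score merges spot fluorescence intensity with its signal-to-noise ratio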
# assayContext: small-molecule microarray binding, fluorescence 635 nm; higher = more signal
readoutName: composite z-score

INSERT INTO measurements (compound, measvalue) VALUES
  ('CC(C)N1CC=CC23O[C@@H]4C=CCOC(=O)[C@@H]4[C@H]2C(=O)N(CCCO)[C@@H]3C1=O (stereo partly specified)', 1.95),
  ('COC(=O)C(CC#Cc1ccc2c(c1)[C@]1(C(=O)N2)[C@H](c2ccccc2OCCO)N2[C@H](c3ccccc3)[C@H](c3ccccc3)OC(=O)[C@H]2[C@@H]1C(=O)NC[C@H](O)c1ccccc1)C(=O)OC', 1.65),
  ('Cc1ccc(S[C@]2(C(=O)NCC(F)(F)F)CC(=O)N(Cc3ccccc3)[C@@H]2c2ccc(CO)cc2I)cc1', 1.37),
  ('COc1ccc([Si](C)(C)[C@@H]2[C@@H](CC(=O)N3Cc4ccccc4C[C@H]3CO)O[C@]3(C(=O)N(C)c4ccccc43)[C@H]2C)cc1', 1.22),
  ('COCCOC(=O)N1C(=O)[C@@]2(c3cc(C#CC4=CCCCC4)ccc31)[C@H](c1ccccc1OCCO)N1[C@H](c3ccccc3)[C@H](c3ccccc3)OC(=O)[C@H]1[C@@H]2C(=O)Nc1nc2ccccc2s1', 1.09),
  ('COc1ccc(CCNC(=O)[C@@]2(Sc3ccc(C)cc3)CC(=O)N(C3Cc4ccccc4C3)[C@@H]2c2ccc(CO)cc2)cc1', 0.672);

====

Form field: z-score (one value per entry).
# protocolText: P. aeruginosa biofilm formation inhibitors, primary screen, strain PAO1, LB-PBS medium, absorbance 600 nm (AID 1176); note: test concentration not given here
# assayContext: P. aeruginosa PAO1 growth/biofilm, A600, 12 h; higher = more signal
readoutName: z-score

INSERT INTO assay_data (structureassmiles, readoutname, measvalue) VALUES
  ('Cc1ccc(S[C@]2(C(=O)NCCCN(C)C)CC(=O)N(C3CCCCC3)[C@@H]2c2ccc(CO)cc2)cc1', 'z-score', 0.236),
  ('Cc1ccc(S[C@]2(C(=O)NCC(F)(F)F)CC(=O)N(C3CCCCC3)[C@@H]2c2ccc(CO)cc2I)cc1', 'z-score', 0.201),
  ('C=CCN1C(=O)[C@@]2(O[C@@H](CCn3cc([C@H](O)c4ccccc4)nn3)[C@H]([Si](C)(C)c3ccc(OC)cc3)[C@H]2C)c2cc(N3CCC3=O)ccc21', 'z-score', 1.25),
  ('C=C(C(=O)CC[C@@H](OC(C)=O)c1ccc(CO)o1)C(C)C', 'z-score', 2.05);

====

# protocolText: small-molecule microarray binders of probe aShh, primary screen, biochemical, biotinylated probe, 635/667 nm fluorescence (AID 1114);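 note: probe is biotin-labelled aShh protein from a stem cell growth factor screen; measures binding of labelled protein to compounds printed on the slide; score merges feature fluorescence at 667 nm with signal-to-noise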
# assayContext: higher = more signal
# if value of composite z-score reaches -0.04, tag Yes; if it stays below, tag No

INSERT INTO results (compound, assignedclass) VALUES
  ('CC(=O)NCCCC[C@@H]1NC(=O)[C@H]2C[C@@H](C(=O)NCCCC[N+](C)(C)C)[C@@H](c3cccc(OCCO)c3)N2C1=O', 'Yes'),
  ('COC(=O)c1cn(C[C@@H](Cc2ccccc2)NC(=O)N[C@H](CO)CCc2oc(C(C)=O)c(C(=O)OC)c2C(=O)OC)nn1', 'No'),
  ('Cc1ccc(S[C@]2(C(=O)NCC(F)(F)F)CC(=O)N(Cc3ccccc3)[C@@H]2c2ccc(CO)cc2I)cc1', 'Yes'),
  ('CCCC[C@@H]1C[C@H]1[C@@H](NC(=O)c1cccs1)c1ccc(C(F)(F)F)cc1', 'Yes'),
  ('CN(C)CCCCNC(=O)[C@@H]1C[C@@H]2C(=O)N[C@@H](Cc3ccccc3)C(=O)N2[C@@H]1c1cccc(OCCO)c1', 'Yes'),
  ('COCCOC(=O)N1C(=O)[C@@]2(c3ccccc31)[C@H](C(=O)N1CCN(c3ncccn3)CC1)[C@H]1C(=O)O[C@H](c3ccccc3)[C@H](c3ccccc3)N1[C@@H]2c1ccc(O)cc1', 'Yes'),
  ('Cc1ccc(S[C@]2(C(=O)O)CC(=O)N(Cc3ccccc3Cl)[C@@H]2c2ccc(CO)cc2I)cc1', 'Yes'),
  ('COc1ccc(CCN2C(=O)[C@@]3(Cc4ccccc42)c2ccccc2C(=O)N(Cc2ccccc2OC)[C@H]3c2ccc(CO)cc2)cc1', 'No'),
  ('C=CCN1C(=O)[C@@]2(CCS(=O)(=O)c3ccccc3)N=C(c3ccc(OCCCO)cc3)O[C@H]2c2ccccc21', 'No'),
  ('CCOC(=O)c1ccc(NC(=O)O[C@H]2[C@H](OC(=O)Nc3ccc4c(c3)OCO4)[C@@H](OC(=O)Nc3ccc4c(c3)OCO4)[C@@H](OC)O[C@@H]2CO)cc1', 'No'),
  ('COC(=O)[C@@]1(Cc2ccc(F)cc2)[C@H]2c3cc(C(=O)N4CCCC4)n(CCc4ccc(O)c(O)c4)c3C[C@H]2CN1C(=O)c1ccccc1', 'Yes'),
  ('COc1cc(OC)c(C(O)C2C=CC3C(=O)N(c4ccccc4)C(=O)C3N2Nc2ccccc2)cc1Br (centres undefined)', 'No'),
  ('CCOC(=O)C[C@H]1[C@H](OC(=O)c2cc3ccccc3oc2=O)[C@@H](NC(=O)c2ccc(-c3ccccc3)cc2)c2cc(OCCCO)ccc2N1C(=O)c1ccccc1', 'Yes'),
  ('CN(C)C(=O)[C@]1(CCS(=O)(=O)c2ccccc2)N=C(c2ccc(OCCCO)cc2)O[C@@H]1c1ccccc1N=[N+]=[N-]', 'Yes');

====

# protocolText: osmotic lysis modulators in infected erythrocytes, primary screen, PSAC antagonist project, cell-based, P. falciparum Indochina, OD700, 3 h (AID 1156)
# assayContext: higher = more signal, called active from +8 up or from −8 down
The source made the active and inactive calls.
readoutName: z-score

INSERT INTO measurements (structureassmiles, readoutname, measvalue) VALUES
  ('COC(=O)c1c(CC[C@@H](CO)NC(=O)N2CCC[C@H]2Cn2cc(Cc3ccccc3)nn2)oc(C(C)=O)c1C(=O)OC', 'z-score', '0.876 (inactive)'),
  ('COC(=O)c1c2oc(c1C(=O)OC)C(=O)N(C)Cc1cn(nn1)C[C@H](Cc1ccccc1)NC(=O)N[C@H](CO)CC2', 'z-score', '-0.119 (inactive)'),
  ('CCCCCCc1nc(-c2cc(C)c(OC)c(C)c2)c(C)c2c1[Si](C(C)C)(C(C)C)OC2', 'z-score', '1.02 (inactive)'),
  ('COCCOC(=O)N1C(=O)[C@@]2(c3cc(C#CC4=CCCCC4)ccc31)[C@H](c1ccccc1OCCO)N1[C@H](c3ccccc3)[C@H](c3ccccc3)OC(=O)[C@H]1[C@@H]2C(=O)Nc1nc2ccccc2s1', 'z-score', '-0.507 (inactive)'),
  ('COCCOC(=O)N1C(=O)[C@@]2(c3cc(C#CC4(O)CCCCCC4)ccc31)[C@H](c1ccc(O)cc1)N1[C@H](c3ccccc3)[C@H](c3ccccc3)OC(=O)[C@H]1[C@@H]2C(=O)NC[C@H](O)c1ccccc1', 'z-score', '-1.17 (inactive)');
